Attribution: PubChem BioAssay (Tox21)

- assay-protocol: Nuclear factor erythroid 2-related factor 2/antioxidant responsive element (Nrf2/ARE) small molecule agonists: qHTS cell viability counter screen in human keratinocytes (AID 1919968); note: nearly all actives have a fitted effect of over 55% in size
- experimental-parameters: KeratinoSens HaCaT ARE cells viability, CellTiter-Fluor, 24 h; series mostly up to 92.4 µM
- Excerpt: U.S. Tox21 Program National Center for Advancing Translational Sciences [NCATS] Division of Preclinical Innovation [DPI] U.S. Environmental Protection Agency [EPA] National Institutes of Environmental Health Sciences [NIEHS] National Toxicology Program [NTP] U.S. Food and Drug Administration [FDA] […] The activation of the report gene under culture conditions can be detected by ONE-Glo Luciferase Assay System (Promega, Madison, WI). […]
Results filed as inconclusive are left out. The source made the active and inactive calls. Calls come from the whole dose curve; as a rule, active = well fitted cell-killing curve with a large enough effect in the repeat runs; inconclusive = weak or mixed curves, or effect the other way; inactive = flat fitted curve, though single readings scatter.
Return exactly one item of label 1 (active), label 0 (inactive)

Name the outcome recorded for `C=CC(=O)OCCCCCCCC` in the assay.
label 0

Name the outcome recorded for `N#CC1(O)CCCCC1` in the assay.
label 0

Name the outcome recorded for `NC(=O)c1ncn([C@@H]2O[C@H](CO)[C@@H](O)[C@H]2O)c1O` in the assay.
label 0

Name the outcome recorded for `CNCCO` in the assay.
label 0

Name the outcome recorded for `CCCCN(CCCC)CCCCCCN(CCCC)CCCC` in the assay.
label 0

Name the outcome recorded for `Clc1nc(Cl)c(Cl)c(Cl)c1Cl` in the assay.
label 0

Name the outcome recorded for `COC(=O)c1ccc([N+](=O)[O-])cc1` in the assay.
label 0

Name the outcome recorded for `O=C(Cl)c1ccccc1[N+](=O)[O-]` in the assay.
label 0

Name the outcome recorded for `CCCCCCCOC(C)=O` in the assay.
label 0

Name the outcome recorded for CC(C)(C)C1CCCCC1O (centres undefined) in the assay.
label 0

Name the outcome recorded for `CC(C)(C)c1cc(Cc2cc(C(C)(C)C)c(O)c(C(C)(C)C)c2)cc(C(C)(C)C)c1O` in the assay.
label 0

Name the outcome recorded for COC(=O)C1=C(C)NC(C)=C(C(=O)OCCN(C)Cc2ccccc2)C1c1cccc([N+](=O)[O-])c1 (centres undefined) in the assay.
label 1

Name the outcome recorded for COCC(O)CO (centres undefined) in the assay.
label 0

Name the outcome recorded for COC(=O)CC(C(C)=O)C(=O)OC (centres undefined) in the assay.
label 0

Name the outcome recorded for O=C(O)CSCC(=O)NC1CCSC1=O (centres undefined) in the assay.
label 0

Name the outcome recorded for `O=[N+]([O-])c1ccc2nc[nH]c2c1` in the assay.
label 0

Name the outcome recorded for `CCCSSCCC` in the assay.
label 0

Name the outcome recorded for `CCCCCCCCCCCCCCCC(=O)NCCO` in the assay.
label 0

Name the outcome recorded for `CCCCCCCCCCCC(=O)N(C)CC(=O)O` in the assay.
label 0
